The origin of these recorded values is ChEMBL document CHEMBL1138213.

Tested on: SH-SY5Y
test: cells
experimental_parameters: Homo sapiens, read-out: Activity
Description: Viability of SH-SY5Y cells measured as neuroprotection activity in presence of H2O2 at 0.3 uM relative to control
metric: viability at 0.3 µM (%)

CCOC(=O)C1=C(C)Nc2nc3c(c(N)c2C1c1ccc([N+](=O)[O-])cc1)CCCC3 (centres undefined) : 35.5
CCOC(=O)C1=C(C)Nc2nc3c(c(N)c2C1c1ccccc1)CCCC3 (centres undefined) : 30.6
COCCOC(=O)C1=C(C)NC(C)=C(C(=O)OC(C)C)C1c1cccc([N+](=O)[O-])c1 (centres undefined) : 36
CCOC(=O)C1=C(C)Nc2nc3c(c(N)c2C1c1ccc(C)cc1)CCCC3 (centres undefined) : 53.7
